Exercise: for every item that follows, state its recorded inhibition value (inhibitor concentration at 25% inhibition).
molecular target: IgE antibodies of the allergic patient serum pool We 6/97; assay: EAST inhibition, serum pool We 6/97
// return numeric value only (unit: mol/L, not printed)

inhibition value (inhibitor concentration at 25% inhibition) measured on rPhl p 5b point mutant PM1 (N32D, D49L, K50A) (protein) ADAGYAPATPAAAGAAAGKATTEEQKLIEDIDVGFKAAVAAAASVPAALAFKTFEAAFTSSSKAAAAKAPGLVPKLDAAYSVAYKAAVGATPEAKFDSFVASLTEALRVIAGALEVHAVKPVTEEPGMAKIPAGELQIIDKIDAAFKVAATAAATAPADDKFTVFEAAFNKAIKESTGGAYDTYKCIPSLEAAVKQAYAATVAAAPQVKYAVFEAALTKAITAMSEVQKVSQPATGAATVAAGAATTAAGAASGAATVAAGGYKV = 1.2e-09

Reported inhibition value (inhibitor concentration at 25% inhibition) for natural Phl p 5b, purified by affinity chromatography (protein) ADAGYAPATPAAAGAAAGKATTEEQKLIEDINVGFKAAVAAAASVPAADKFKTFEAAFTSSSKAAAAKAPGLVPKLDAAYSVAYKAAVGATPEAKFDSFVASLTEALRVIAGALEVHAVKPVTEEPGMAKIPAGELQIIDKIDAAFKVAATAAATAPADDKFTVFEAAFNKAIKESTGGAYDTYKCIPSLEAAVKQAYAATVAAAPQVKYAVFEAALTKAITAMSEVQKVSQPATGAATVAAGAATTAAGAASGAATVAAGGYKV was 5.1e-10

For reference, reported inhibition value (inhibitor concentration at 25% inhibition) for rPhl p 5b point mutant PM3 (A13C) (protein) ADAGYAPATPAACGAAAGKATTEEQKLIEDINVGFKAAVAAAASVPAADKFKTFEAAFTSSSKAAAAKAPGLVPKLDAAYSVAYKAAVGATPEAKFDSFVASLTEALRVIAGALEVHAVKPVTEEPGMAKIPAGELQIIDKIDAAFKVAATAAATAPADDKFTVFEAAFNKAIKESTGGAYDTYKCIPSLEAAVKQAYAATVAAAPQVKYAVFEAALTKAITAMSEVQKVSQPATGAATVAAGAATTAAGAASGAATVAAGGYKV stands at 8.3e-10

Noted for rPhl p 5b deletion mutant DM3 (deletion A154-T177, A220T) (protein) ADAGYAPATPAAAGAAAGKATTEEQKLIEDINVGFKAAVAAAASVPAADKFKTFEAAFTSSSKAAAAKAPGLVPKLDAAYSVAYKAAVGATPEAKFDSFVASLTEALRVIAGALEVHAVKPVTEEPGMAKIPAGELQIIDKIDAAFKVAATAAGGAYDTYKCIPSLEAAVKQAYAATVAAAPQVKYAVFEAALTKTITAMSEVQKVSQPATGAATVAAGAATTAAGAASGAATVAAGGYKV : its inhibition value (inhibitor concentration at 25% inhibition) reads 5.1e-09
